Cited source: patent US7511041B2

// reported pIC50 for each item listed
biological target: Recombinant human PI3Kγ (full length human PI3K p110γ) (Homo sapiens); construct: full length human PI3K p110γ fused with a His6-tag at the C-terminus; His6 (C); purchased ALEXIS BIOCHEMICALS #201-055-C010; host or cells: S. frugiperda 9 insect cells; assay: Kinase assay of PI3Kγ (solid-phase lipid kinase assay); type: biochemical; settings: Table 1, isozyme not given; read-out: in vitro
Sequence (P48736 whole entry, the tested form may be a part): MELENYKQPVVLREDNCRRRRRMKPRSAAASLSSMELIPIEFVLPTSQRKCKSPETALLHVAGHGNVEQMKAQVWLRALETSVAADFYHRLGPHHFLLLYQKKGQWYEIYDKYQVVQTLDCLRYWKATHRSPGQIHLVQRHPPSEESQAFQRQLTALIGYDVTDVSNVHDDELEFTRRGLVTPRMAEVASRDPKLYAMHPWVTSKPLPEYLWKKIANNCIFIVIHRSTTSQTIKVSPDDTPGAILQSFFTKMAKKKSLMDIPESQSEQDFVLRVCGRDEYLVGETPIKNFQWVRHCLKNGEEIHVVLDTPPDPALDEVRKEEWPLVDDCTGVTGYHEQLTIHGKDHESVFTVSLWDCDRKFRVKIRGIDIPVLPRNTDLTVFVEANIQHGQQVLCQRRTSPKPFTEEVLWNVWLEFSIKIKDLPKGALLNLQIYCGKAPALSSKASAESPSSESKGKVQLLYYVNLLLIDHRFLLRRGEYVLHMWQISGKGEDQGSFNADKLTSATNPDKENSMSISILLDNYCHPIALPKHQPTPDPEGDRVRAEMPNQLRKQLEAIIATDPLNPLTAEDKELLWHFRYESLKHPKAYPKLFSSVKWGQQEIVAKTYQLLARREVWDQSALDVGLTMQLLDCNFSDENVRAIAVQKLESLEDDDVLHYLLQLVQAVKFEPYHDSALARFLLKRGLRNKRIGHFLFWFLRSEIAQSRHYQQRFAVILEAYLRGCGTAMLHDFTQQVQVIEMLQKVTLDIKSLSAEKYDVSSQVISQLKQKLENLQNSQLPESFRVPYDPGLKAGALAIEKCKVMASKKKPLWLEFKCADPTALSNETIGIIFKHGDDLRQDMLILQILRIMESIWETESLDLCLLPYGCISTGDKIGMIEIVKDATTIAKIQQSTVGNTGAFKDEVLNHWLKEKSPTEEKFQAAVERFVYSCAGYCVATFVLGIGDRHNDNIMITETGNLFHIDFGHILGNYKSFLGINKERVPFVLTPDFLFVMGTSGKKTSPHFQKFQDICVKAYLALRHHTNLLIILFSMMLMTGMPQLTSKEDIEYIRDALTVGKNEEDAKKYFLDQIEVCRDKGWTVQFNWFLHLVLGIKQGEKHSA
pIC50: −log10 of the molar value.

Missing value: pIC50, Recombinant human PI3Kγ (full length human PI3K p110γ) (Homo sapiens), entry COc1c(OCCO)ccc2c1N=C(/C=C(\O)c1cccnc1)N1CCN=C21 . Fill in?
> 7.00

Missing value: pIC50, Recombinant human PI3Kγ (full length human PI3K p110γ) (Homo sapiens), entry O/C(=C\C1=Nc2ccccc2C2=NCCN12)c1cccs1 . Fill in?
> 7.00

Missing value: pIC50, Recombinant human PI3Kγ (full length human PI3K p110γ) (Homo sapiens), entry COc1c(C)ccc2c1N=C(/C=C(\O)c1ccc3[nH]cnc3c1)N1CCN=C21 . Fill in?
> 7.00

Missing value: pIC50, Recombinant human PI3Kγ (full length human PI3K p110γ) (Homo sapiens), entry Cl.O/C(=C\C1=Nc2ncccc2C2=NCCN12)c1ccc2[nH]cnc2c1 . Fill in?
6.30 to 7.00

Others:
Missing value: pIC50, Recombinant human PI3Kγ (full length human PI3K p110γ) (Homo sapiens), entry COc1cc2c(cc1OC)C1=NCCN1C(/C=C(\O)c1ccc(C)nc1)=N2 . Fill in?
> 7.00

Missing value: pIC50, Recombinant human PI3Kγ (full length human PI3K p110γ) (Homo sapiens), entry COc1c(OCc2nn[nH]n2)ccc2c1N=C(/C=C(\O)c1cccnc1)N1CCN=C21 . Fill in?
> 7.00

Missing value: pIC50, Recombinant human PI3Kγ (full length human PI3K p110γ) (Homo sapiens), entry O=[N+]([O-])c1ccc2c(c1)C1=NCCN1C(/C=C(\O)c1cccnc1)=N2 . Fill in?
5.70 to 6.30

Missing value: pIC50, Recombinant human PI3Kγ (full length human PI3K p110γ) (Homo sapiens), entry COc1cc2c(cc1OC)C1=NCCN1C(/C=C(\O)c1ccc3[nH]cnc3c1)=N2.Cl . Fill in?
> 7.00
